# protein stability index annotations
B1: ATL3 (parent)
chain: FSFRYQQELEEEIKELYENFCKHN

Variants of: B1
Assay: protein stability index of a GFP-peptide fusion (GPS, HEK-293T) (PSI 1-6); higher = more stable;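 also: lentivirally expressed fusions sorted by FACS into six bins by GFP to DsRed ratio, PSI derived from sequencing read proportions per bin multiplied by bin number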
Conditions: c terminus: a fixed tail appended

| construct.sequence | observed.property | result |
| --- | --- | --- |
| FSFRYQQELEEEIKELYEEFCKHN [N19E] | protein stability index | 2.06 |
| FSFRYQQELEEEIKELYENFCKAN [H23A] | protein stability index | 2.25 |
| FSFRYQTELEEEIKELYENFCKHN [Q7T] | protein stability index | 2.59 |
| FSFRYQQELEEEIKELGENFCKHN [Y17G] | protein stability index | 4.22 |
| FSFRYQQELEYEIKELYENFCKHN [E11Y] | protein stability index | 1.6 |

variant FSFRYQQELEEEIKELYEYFCKHN [N19Y] , protein stability index observed: 1.89

Reported protein stability index ( FSFRYQQELEEEIKELYYNFCKHN [E18Y] ) = 2.15

Value of protein stability index reported for the variant FSFRYQQELEEEIKESYENFCKHN [L16S] is 2.79

So for FMFRYQQELEEEIKELYENFCKHN [S2M] , the logged protein stability index turned out to be 1.52

What the record says about FSFRYQQELEENIKELYENFCKHN [E12N] : protein stability index is 2.09

// protein stability index lookup, variant = FSFRYQQELEEEIKELYWNFCKHN [E18W] , result: 1.34
